# target.or.test.system: P. falciparum falcipain-2 (Plasmodium falciparum)
# Construct: Recombinant falcipain-2 (30 nM) was incubated for 30 min at room temperature
# measurement.protocol: in vitro falcipain-2 inhibition assay (fluorogenic substrate Z-Leu-Arg-AMC)
# Assay type: biochemical
# assay.setup: at 10 μM concentration level; recombinant falcipain-2 30 nM, pH 5.5, substrate Z-Leu-Arg-AMC 25 μM
For each of the compounds below, state its Inhibition rate.
Numbers only, in %.

CC1CCC2C(C)[C@@H](Oc3ccc(C=NNC(=S)Nc4ccccc4F)cc3)OC3OC4(C)CCC1C32OO4 (stereo partly drawn) [Compound 10a]
72.48

State recorded Inhibition rate for all listed compounds.
1. CC1CCC2C(C)[C@@H](Oc3ccc(C=NNC(=O)Nc4ccc(F)cc4)cc3)OC3OC4(C)CCC1C32OO4 (stereo partly drawn) [Compound 10h]
2. CCOc1ccc(NC(=S)NN=Cc2ccc(O[C@H]3OC4OC5(C)CCC6C(C)CCC(C3C)C46OO5)cc2)cc1 (stereo partly drawn) [Compound 10c]
3. CCOc1ccc(NC(=O)NN=Cc2ccc(O[C@H]3OC4OC5(C)CCC6C(C)CCC(C3C)C46OO5)cc2)cc1 (stereo partly drawn) [Compound 10i]
4. Cc1cc(C)cc(NC(=O)NN=Cc2ccc(C(=O)O[C@@H]3O[C@@H]4O[C@@]5(C)CC[C@H]6[C@H](C)CC[C@@H]([C@H]3C)[C@@]46OO5)cc2)c1 [Compound 12e]
5. Cc1cc(C)cc(NC(=S)NN=Cc2ccc(O[C@H]3O[C@@H]4O[C@@]5(C)CC[C@H]6[C@H](C)CC[C@@H]([C@H]3C)[C@@]46OO5)cc2)c1 [Compound 10e]

84.60
87.42
72.70
71.62
74.06

* * *

# target.or.test.system: P. falciparum falcipain-2 (Plasmodium falciparum)
# Construct: Recombinant falcipain-2 (30 nM) was incubated for 30 min at room temperature
# Sequence (Q8I6U4 244-484): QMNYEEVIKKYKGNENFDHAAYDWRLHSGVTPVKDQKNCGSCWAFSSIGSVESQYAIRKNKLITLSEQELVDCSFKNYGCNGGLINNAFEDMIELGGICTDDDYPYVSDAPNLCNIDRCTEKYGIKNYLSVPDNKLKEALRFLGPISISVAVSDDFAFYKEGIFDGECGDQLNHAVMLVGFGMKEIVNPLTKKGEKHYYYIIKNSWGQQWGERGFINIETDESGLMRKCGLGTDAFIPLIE
# measurement.protocol: in vitro falcipain-2 inhibition assay (fluorogenic substrate Z-Leu-Arg-AMC)
# assay.setup: recombinant falcipain-2 30 nM, 30 min preincubation, pH 5.5, substrate Z-Leu-Arg-AMC 25 μM; determined if inhibition rate larger than 20% at 10 μM
For each of the molecules below, state its pIC50.
Numbers only, as −log10 of the molar value.

State recorded pIC50 for all listed molecules.
1. Cc1cc(C)cc(NC(=O)NN=Cc2ccc(O[C@H]3O[C@@H]4O[C@@]5(C)CC[C@H]6[C@H](C)CC[C@@H]([C@H]3C)[C@@]46OO5)cc2)c1 [Compound 10k]
2. CC(C)C[C@H](NC(=O)[C@H]1O[C@@H]1C(=O)O)C(=O)NCCCCN=C(N)N (relative stereo) [Compound E-64, reference compound]
3. Cc1ccc(C)c(NC(=S)NN=Cc2ccc(O[C@H]3OC4OC5(C)CCC6C(C)CCC(C3C)C46OO5)cc2)c1 (stereo partly shown) [Compound 10d]
4. Cc1ccc(C)c(NC(=O)NN=Cc2ccc(O[C@H]3OC4OC5(C)CCC6C(C)CCC(C3C)C46OO5)cc2)c1 (stereo partly shown) [Compound 10j]
5. CCOc1ccc(NC(=O)NN=Cc2ccc(C(=O)O[C@@H]3OC4OC5(C)CCC6C(C)CCC(C3C)C46OO5)cc2)cc1 (stereo partly shown) [Compound 12c]
6. Cc1c(Cl)cccc1NC(=S)NN=Cc1ccc(O[C@H]2OC3OC4(C)CCC5C(C)CCC(C2C)C35OO4)cc1 (stereo partly shown) [Compound 10f]
7. CC1CCC2C(C)[C@@H](Oc3ccc(C=NNC(=S)Nc4ccccc4F)cc3)OC3OC4(C)CCC1C32OO4 (stereo partly shown) [Compound 10a]

1. 5.99
2. 7.71
3. 6.26
4. 5.64
5. 6.54
6. 6.01
7. 5.60

* * *

# target.or.test.system: P. falciparum falcipain-2 (Plasmodium falciparum)
# Construct: Recombinant falcipain-2 (30 nM) was incubated for 30 min at room temperature
# measurement.protocol: in vitro falcipain-2 inhibition assay (fluorogenic substrate Z-Leu-Arg-AMC)
# assay.setup: recombinant falcipain-2 30 nM, 30 min preincubation, pH 5.5, substrate Z-Leu-Arg-AMC 25 μM; determined if inhibition rate larger than 20% at 10 μM
readout.name: pIC50
Give bare numbers, as −log10 of the molar value.

The cases that follow already have their pIC50 on record.
Cc1cc(C)cc(NC(=O)NN=Cc2ccc(C(=O)O[C@@H]3O[C@@H]4O[C@@]5(C)CC[C@H]6[C@H](C)CC[C@@H]([C@H]3C)[C@@]46OO5)cc2)c1 [Compound 12e]
6.24
Cc1ccc(C)c(NC(=O)NN=Cc2ccc(C(=O)O[C@@H]3OC4OC5(C)CCC6C(C)CCC(C3C)C46OO5)cc2)c1 (stereo partly shown) [Compound 12d]
5.53
CC1CCC2C(C)[C@H](OC(=O)c3ccc(C=NNC(=O)Nc4ccc(F)cc4)cc3)OC3OC4(C)CCC1C32OO4 (stereo partly shown) [Compound 12b]
6.19

// field: pIC50; key: CC1CCC2C(C)[C@H](OC(=O)c3ccc(C=NNC(=O)Nc4ccccc4F)cc3)OC3OC4(C)CCC1C32OO4 (stereo partly shown) [Compound 12a] ; value = 6.33

* * *

# target.or.test.system: P. falciparum falcipain-2 (Plasmodium falciparum, UniProt Q8I6U4)
# Construct: Recombinant falcipain-2 (30 nM) was incubated for 30 min at room temperature
# measurement.protocol: in vitro falcipain-2 inhibition assay (fluorogenic substrate Z-Leu-Arg-AMC)
# assay.setup: recombinant falcipain-2 30 nM, 30 min preincubation, pH 5.5, substrate Z-Leu-Arg-AMC 25 μM; determined if inhibition rate larger than 20% at 10 μM
For each of the compounds below, state its IC50.
Give bare numbers, in nM.

The cases that follow already have their IC50 on record.
CC1CCC2C(C)[C@@H](Oc3ccc(C=NNC(=O)Nc4ccccc4F)cc3)OC3OC4(C)CCC1C32OO4 (stereo partly drawn) [Compound 10g]
2250
CC1CCC2C(C)[C@@H](Oc3ccc(C=NNC(=O)Nc4ccc(F)cc4)cc3)OC3OC4(C)CCC1C32OO4 (stereo partly drawn) [Compound 10h]
1020
Cc1cc(C)cc(NC(=S)NN=Cc2ccc(O[C@H]3O[C@@H]4O[C@@]5(C)CC[C@H]6[C@H](C)CC[C@@H]([C@H]3C)[C@@]46OO5)cc2)c1 [Compound 10e]
1350
Cc1c(Cl)cccc1NC(=O)NN=Cc1ccc(C(=O)O[C@@H]2OC3OC4(C)CCC5C(C)CCC(C2C)C35OO4)cc1 (stereo partly drawn) [Compound 12f]
10600
Cc1c(Cl)cccc1NC(=O)NN=Cc1ccc(O[C@H]2OC3OC4(C)CCC5C(C)CCC(C2C)C35OO4)cc1 (stereo partly drawn) [Compound 10l]
2540

// field: IC50; key: CCOc1ccc(NC(=O)NN=Cc2ccc(O[C@H]3OC4OC5(C)CCC6C(C)CCC(C3C)C46OO5)cc2)cc1 (stereo partly drawn) [Compound 10i] ; value = 700
